Each item that follows carries a reported T/C.
# Test system: P388 leukemia ip, CD2F1 mice, survival T/C
# assay: NCI In Vivo Anticancer Drug Screen. Data for tumor model P388 Leukemia (intraperitoneal) in CD2F1 (CDF1) mice
# run conditions: endpoint: median survival time; dose: 12.5 mg/kg/injection; schedule: Q01DX009 (ip); vehicle: distilled water + Tween-80; higher = longer survival
Toxic doses and inconclusive results are not listed.

>  <compound>
CCOC(=O)CCC(NC(=O)c1ccc(CBr)cc1)C(=O)OCC (stereo unspecified)

>  <observed>
102 % of control

$$$$

Here's the next entry for you.
Entry O=C1c2ccccc2C(O)(C(=O)O)C1(O)CC=C(Cl)Cl (stereo unspecified) — recorded T/C = 103 % of control

Taken from PubChem BioAssay AID330.
